tested-on: B′γ1 regulatory subunit (UniProt Q13362-2 1-449)
protocol: BLI
pKd: −log10 of the molar value. Where no end group is shown, it is not given here.
readout-name: pKd

YQPLECIVEETEGKLN (not fully specified) [GST-tagged ANKHD1 peptide (B′-binding motif)]
5.68
HVLYPIPESSSDSPLA [GST-tagged STON1 peptide (B′-binding motif)]
5.52
LETIPESEPSGMNRIL [GST-tagged DENND2C peptide (B′-binding motif)]
6.28
LSSIPEASEYDWRNYQ [GST-tagged C3orf67 peptide (B′-binding motif)]
7.21
IKKLSPIIEDSREATH [GST-tagged BUB1B peptide (B′-binding motif)]
7.37

[I] FQHNRKLESVAEEHEI [GST-tagged KIAA1524 (CIP2A) peptide (B′-binding motif)]
[II] KLPHVLSSIAEEEHHL [GST-tagged SYT16 peptide (B′-binding motif)]
API: POST /compare with I and II ; response names the item with higher pKd. Give the label of your selection. I
(I: 6.92, II: 6.47)

Recorded values, source paper PMC5586252.
